Reference source: PubChem BioAssay (NCATS)

- SYSTEM: Rap guanine nucleotide exchange factor 3 (Homo sapiens) (UniProt O95398)
- Sequence (O95398 whole entry, looked up): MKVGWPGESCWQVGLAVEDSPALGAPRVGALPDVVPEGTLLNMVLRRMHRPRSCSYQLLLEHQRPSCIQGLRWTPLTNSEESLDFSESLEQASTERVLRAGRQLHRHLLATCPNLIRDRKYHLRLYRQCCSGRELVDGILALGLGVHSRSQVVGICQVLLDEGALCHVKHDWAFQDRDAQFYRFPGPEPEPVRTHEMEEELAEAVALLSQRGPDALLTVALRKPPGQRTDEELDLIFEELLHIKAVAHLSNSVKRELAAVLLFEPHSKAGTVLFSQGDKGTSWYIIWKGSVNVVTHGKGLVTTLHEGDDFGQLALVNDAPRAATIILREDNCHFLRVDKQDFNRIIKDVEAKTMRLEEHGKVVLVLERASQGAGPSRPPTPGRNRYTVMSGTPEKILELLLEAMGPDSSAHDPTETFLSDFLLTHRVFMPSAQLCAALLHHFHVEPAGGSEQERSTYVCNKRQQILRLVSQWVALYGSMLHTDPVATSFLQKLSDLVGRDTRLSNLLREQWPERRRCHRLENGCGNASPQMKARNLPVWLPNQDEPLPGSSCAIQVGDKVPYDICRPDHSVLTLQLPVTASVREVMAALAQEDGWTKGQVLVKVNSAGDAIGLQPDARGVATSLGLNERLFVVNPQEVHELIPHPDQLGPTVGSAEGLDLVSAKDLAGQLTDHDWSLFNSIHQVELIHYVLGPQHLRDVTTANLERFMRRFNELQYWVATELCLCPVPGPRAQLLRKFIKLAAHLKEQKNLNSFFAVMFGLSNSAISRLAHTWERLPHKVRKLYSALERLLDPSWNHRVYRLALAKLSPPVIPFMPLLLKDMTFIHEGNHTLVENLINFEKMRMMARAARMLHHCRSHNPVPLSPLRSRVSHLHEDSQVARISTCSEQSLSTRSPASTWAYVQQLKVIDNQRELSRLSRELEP
- TEST DETAILS: Confirmatory qHTS for antagonist of cAMP-regulated guanine nucleotide exchange factor 3 (EPAC1) (AID 1645880); also: nearly all actives have a fitted effect of over 55% in size
- EXPERIMENTAL CONDITIONS: EPAC1 Rap1B-BODIPY-GDP exchange, fluorescence; series mostly up to 115 µM
Records with an inconclusive call do not appear. Calls of active or inactive are those of the source. Calls follow the shape of the dose curve; as a rule, active = well fitted inhibition curve with a large enough effect; inconclusive = small, poorly fitted or top-dose-only effect; inactive = no such curve, though single readings can be large or run the other way.
// one of active, inactive, no free text

Record request — test call for `Fc1cc(F)c(F)c(SCn2cc(Br)cn2)c1F`
inactive

Record request — test call for `COc1ccc(N(C)S(=O)(=O)c2cccc3nsnc23)cc1`
inactive

Record request — test call for CCC(C(=O)OC)n1c(-c2ccccc2)nc2ccccc2c1=O (stereo not given)
inactive

Record request — test call for `CCOc1ccccc1C(=O)N(Cc1cccs1)c1ccc(Cl)cc1`
inactive

Record request — test call for CCC(C)N(C(=O)COC(=O)C1CCN(S(=O)(=O)c2ccc(C)c(C)c2)CC1)C1CCS(=O)(=O)C1 (stereo not given)
inactive

Record request — test call for COc1ccc(C(=O)N2CCc3cc(OC)c(OC)cc3C2c2ccc(OC)c(OC)c2)cc1 (stereo not given)
inactive

Record request — test call for `Cc1cc(Nc2ccccc2)n(-c2nc3ccccc3[nH]2)n1`
inactive

Record request — test call for `Clc1ccc(NCc2nc3ccccc3n2CCOc2ccccc2)cc1`
inactive

Record request — test call for O=C1NC(=O)C2(CCC(C(=O)O)C2)N1 (stereo not given)
inactive

Record request — test call for `CN(CC(=O)O)c1ccc(/C=C/c2ccnc3ccccc23)cc1`
inactive

Record request — test call for `COc1nc(C)cc(C)c1S(=O)(=O)c1ccccc1C`
inactive

Record request — test call for Cc1cccc(N2CCN(c3ccc(C(=O)O)cc3NC(=O)c3ccccc3F)CC2C)c1 (stereo not given)
active

Record request — test call for `CCCc1nn2c(=O)cc(COC(=O)c3cccc(NC(=O)CCc4ccccc4)c3)nc2s1`
inactive

Record request — test call for `c1ccc(-n2nnnc2-n2ccnc2)cc1`
inactive

Record request — test call for `CC(=O)CCc1oc2ccc(C)cc2c1-c1ccc(C)o1`
inactive

Record request — test call for `COc1cc(OC)nc(Oc2cc(/C=N/O)ccc2OC)n1`
inactive

Record request — test call for CCS(=O)(=O)N1CCCC(C(=O)NCCCN(C)Cc2ccccc2)C1 (stereo not given)
inactive

Record request — test call for `S=C(NCCCN1CCOCC1)Nc1cccc(-c2nnc3n2CCCCC3)c1`
inactive

Record request — test call for `CSc1nc(N2CCOCC2)c2c3c(sc2n1)CCC3`
inactive

Record request — test call for CCC(=O)N1N=C(c2cccs2)CC1c1ccc(OC)cc1 (stereo not given)
inactive

Record request — test call for `CC(=O)c1c(C(C)=O)c(C)n(-c2nc(-c3ccccc3)c(C)s2)c1C`
inactive

Record request — test call for `CCOC(=O)c1cc2c(=O)n3ccccc3nc2n(Cc2ccco2)c1=NC(=O)c1ccc(Br)cc1`
active

Record request — test call for `NC(=O)COC(=O)/C=C/c1ccc2ccccc2n1`
inactive

Record request — test call for `O=C(N/N=C/c1c(O)n(-c2ccccc2Cl)c(=O)c2ccccc12)c1cccnc1`
active

Record request — test call for `Cc1cc2nc3c(=O)n(CCc4ccccc4)c(=O)[nH]c3nc2cc1N`
active

Record request — test call for `COc1ccc(NC(=O)CS(=O)(=O)Cc2ccccc2)c([N+](=O)[O-])c1`
inactive

Record request — test call for `Cc1ccccc1-c1nc(CS(=O)(=O)CC(=O)N(C)C2CCCCC2)c(C)o1`
inactive

Record request — test call for `COc1ccc(C(C)=O)cc1COc1ccc(F)cc1`
inactive

Record request — test call for `Cc1ccc2c(/C=C/c3c[nH]c4ccccc34)ccnc2c1C`
inactive

Record request — test call for `COc1ccccc1Oc1ccnc2cc(Cl)ccc12`
inactive

Record request — test call for CCC1CCCCN1CCCNC(=O)CCC(=O)N1CC(C)Oc2ccccc21 (stereo not given)
inactive

Record request — test call for `COc1ccc(C=NNc2ccc([N+](=O)[O-])cc2S(=O)(=O)Nc2ccccc2C(=O)O)cc1OC`
active

Record request — test call for `Cc1[nH]n(-c2ccccc2)c(=O)c1C(c1cc(Cl)ccc1O)c1c(C)[nH]n(-c2ccccc2)c1=O`
active

Record request — test call for `CC[C@H]1C(c2ccc(F)cc2)=NN(c2ccccc2)[C@@H]1CO`
inactive

Record request — test call for `O=C1c2cccc3cccc(c23)N1Cc1ccc(F)cc1`
inactive

Record request — test call for OC1C2CN3CCN(C2)CC1(Cc1ccccc1)C3 (stereo not given)
inactive

Record request — test call for CC1CC(C)CN(C(=O)c2cccc(S(=O)(=O)Nc3cc(C(F)(F)F)ccc3Cl)c2)C1 (stereo not given)
active

Record request — test call for `COc1cc(/C=N/NC(=O)c2ccccc2)ccc1O`
inactive

Record request — test call for `COC(=O)c1cc2oc(C)cc2n1Cc1ccccc1Cl`
inactive

Record request — test call for `COc1ccc(OCC(=O)Nc2ccccc2N2CCCCC2)cc1`
inactive

Record request — test call for `CCc1cccc2sc(N3CCN(C(=O)C4CC4)CC3)nc12`
inactive

Record request — test call for `C=CCn1c(O)c(N=NC(=O)CNC(=O)/C=C/c2ccc(OC)cc2)c2ccccc21`
inactive

Record request — test call for `O=C(/C=C/c1ccc2c(c1)OCO2)Nc1cc(S(=O)(=O)N2CCOCC2)ccc1N1CCOCC1`
inactive

Record request — test call for O=C(NCC1CCCO1)c1ccc(C(=O)NCC2CCCO2)cc1 (stereo not given)
inactive

Record request — test call for `COc1ccc2cc(-c3cn4c(n3)sc3cc(F)ccc34)c(=O)oc2c1`
inactive

###

- Tested on: DIV30
- TEST DETAILS: qHTS profiling for inhibitors of Plasmodium falciparum proliferation (AID 504749); also: nearly all actives have a fitted effect of over 60% in size
- EXPERIMENTAL CONDITIONS: P. falciparum in erythrocytes, SYBR Green DNA, 72 h; series mostly up to 12.8 µM
Records with an inconclusive call do not appear. The source made the active and inactive calls. Calls follow the shape of the dose curve; as a rule, active = well fitted inhibition curve with a large enough effect; inconclusive = small, poorly fitted or top-dose-only effect; inactive = flat fitted curve, though single readings scatter.
// one of active, inactive, no free text

Record request — test call for `NC(=O)c1cc[n+](CC2=C(C(=O)[O-])N3C(=O)[C@@H](NC(=O)Cc4cccs4)[C@@H]3SC2)cc1`
inactive

Record request — test call for `C[C@H](Oc1ccccc1)C(=O)N[C@@H]1C(=O)N2[C@@H]1SC(C)(C)[C@@H]2C(=O)O`
inactive

Record request — test call for `CC(=O)OCC(=O)[C@@]1(O)CC[C@@H]2[C@H]3CCC4=CC(=O)C=C[C@]4(C)[C@]3(F)[C@@H](O)C[C@@]21C`
inactive

Record request — test call for `CCC(=O)O[C@@H]1[C@H](C)O[C@H](O[C@H]2[C@@H](N(C)C)[C@H](O)[C@@H](O[C@@H]3[C@@H](CC=O)C[C@@H](C)[C@@H](O)/C=C\C=C/C[C@@H](C)OC(=O)C[C@@H](OC(=O)CC)[C@H]3OC)O[C@H]2C)C[C@]1(C)O`
inactive

Record request — test call for `NC(=O)N[C@H]1NC(=O)NC1=O`
inactive

Record request — test call for `Cn1nnnc1SCC1=C(C(=O)O)N2C(=O)[C@@H](NC(=O)[C@@H](O)c3ccccc3)[C@@H]2SC1`
inactive

Record request — test call for OCC1OC([S-])[C@H](O)C(O)C1O.[Au+] (some centres not stated)
inactive

Record request — test call for CC1(C)SC2C(N3C(=O)C(c4ccccc4)NC3(C)C)C(=O)N2C1C(=O)O (configuration not stated)
inactive

Record request — test call for `CN1CC(=O)N=C1N`
inactive

Record request — test call for Nc1nc2ncc(CNc3ccc(C(=O)NC(CCC(=O)O)C(=O)O)cc3)nc2c(=O)[nH]1 (configuration not stated)
inactive

Record request — test call for `CC(C)(C)NC[C@@H](O)COc1ccccc1C1CCCC1`
active

Record request — test call for C/C1=C2N=C(/C=C3N=C(/C(C)=C4\[N-]C(C)(C5N=C1C(C)(CCC(=O)NCC(C)OP(=O)([O-])O[C@H]1C(O)C(n6cnc7cc(C)c(C)cc76)O[C@@H]1CO)C5CC(N)=O)C(C)(CC(N)=O)C4CCC(N)=O)C(C)(CC(N)=O)C\3CCC(N)=O)C(C)(C)C/2CCC(N)=O.[CH2-]C1OC(n2cnc3c(N)ncnc32)C(O)C1O.[Co] (some centres not stated)
inactive

Record request — test call for `CC(C)Oc1ccc2c(=O)cc(-c3ccccc3)oc2c1`
inactive

Record request — test call for NCC1CCC(N)C(O[C@@H]2C(O)[C@H](O[C@H]3OC(CO)C(O)C(N)C3O)[C@@H](N)C[C@H]2N)O1 (some centres not stated)
inactive

Record request — test call for OCC1OC(n2cnc3c(=S)nc[nH]c32)C(O)C1O (configuration not stated)
inactive

Record request — test call for `CCCCCCCCCc1ccc(OCCOCCOCCOCCOCCOCCOCCOCCOCCO)cc1`
inactive

Record request — test call for `C[C@]1(c2ccccc2)OC(C(=O)O)=CC1=O`
inactive

Record request — test call for C[C@@H]1O[C@H](O[C@@H]2\C=C/C=C\C=C/C=C\C[C@H](C)OC(=O)/C=C\[C@H]3O[C@@H]3C[C@H](O)C[C@]3(O)C[C@@H](O)[C@@H](C(=O)O)[C@H](C2)O3)[C@@H](O)[C@H](N)[C@@H]1O (stereo in doubt)
inactive

Record request — test call for `CC(C)(C)NC(=O)[C@@H]1CC[C@@H]2[C@@H]3CC[C@@H]4NC(=O)C=C[C@@]4(C)[C@H]3CC[C@]21C`
inactive

Record request — test call for `CCN(CC)CCOC(=O)[C@@H](Cc1cccc2ccccc12)C[C@@H]1CCCO1`
inactive

Record request — test call for CC(=O)OC1CCC2C3CCc4cc(O)ccc4C3CCC12C (configuration not stated)
inactive

Record request — test call for `O=C(OC[C@@H](O)CO)c1ccccc1Nc1ccnc2cc(Cl)ccc12`
inactive

Record request — test call for `CN(C/C=C\c1ccccc1)Cc1cccc2ccccc12`
inactive

Record request — test call for `CN1C(=O)C[C@H](c2ccccc2)C1=O`
inactive

Record request — test call for `Clc1ccc(CC[C@H](Cn2ccnc2)Sc2c(Cl)cccc2Cl)cc1`
active

Record request — test call for `CC(=O)O[C@H]1C[C@@]2(C)[C@H](C[C@@H](O)[C@H]3[C@@]4(C)CC[C@@H](O)[C@@H](C)[C@H]4CC[C@@]32C)C1=C(CCC=C(C)C)C(=O)O`
inactive

Record request — test call for `C[C@@H](C(=O)O)c1ccc(C(=O)c2ccccc2)s1`
inactive

Record request — test call for `CCC(C)(C)C(=O)O[C@@H]1C[C@H](C)C=C2C=C[C@H](C)[C@@H](CC[C@H]3C[C@@H](O)CC(=O)O3)[C@H]21`
inactive

Record request — test call for `CO[C@@H]1C[C@H](O[C@H]2[C@@H](C)[C@H](O[C@@H]3O[C@@H](C)C[C@@H](N(C)C)[C@@H]3OC(C)=O)[C@H](C)C[C@]3(CO3)C(=O)[C@H](C)[C@H](OC(C)=O)[C@H](C)[C@H](C)OC(=O)[C@@H]2C)O[C@H](C)[C@@H]1OC(C)=O`
inactive

Record request — test call for `CC=C(/C(=C/C)c1ccc(O)cc1)c1ccc(O)cc1`
inactive

Record request — test call for COc1cc(C2c3cc4c(cc3C(O[C@@H]3OC5COC(c6cccs6)OC5C(O)C3O)C3COC(=O)C23)OCO4)cc(OC)c1O (some centres not stated)
active

Record request — test call for CCC(C)C(=O)OC1CCC=C2C=CC(C)C(CCC3CC(O)CC(=O)O3)[C@@H]21 (some centres not stated)
inactive
